Cited source: patent EP1120414A1

Record form. Attribute: IC50. Fill in for each entry.
SYSTEM TESTED: PKC β II (Homo sapiens, UniProt P05771)
Construct: purchased CALBIOCHEM
Sequence (P05771 other isoform, or with tags, fused parts or gaps): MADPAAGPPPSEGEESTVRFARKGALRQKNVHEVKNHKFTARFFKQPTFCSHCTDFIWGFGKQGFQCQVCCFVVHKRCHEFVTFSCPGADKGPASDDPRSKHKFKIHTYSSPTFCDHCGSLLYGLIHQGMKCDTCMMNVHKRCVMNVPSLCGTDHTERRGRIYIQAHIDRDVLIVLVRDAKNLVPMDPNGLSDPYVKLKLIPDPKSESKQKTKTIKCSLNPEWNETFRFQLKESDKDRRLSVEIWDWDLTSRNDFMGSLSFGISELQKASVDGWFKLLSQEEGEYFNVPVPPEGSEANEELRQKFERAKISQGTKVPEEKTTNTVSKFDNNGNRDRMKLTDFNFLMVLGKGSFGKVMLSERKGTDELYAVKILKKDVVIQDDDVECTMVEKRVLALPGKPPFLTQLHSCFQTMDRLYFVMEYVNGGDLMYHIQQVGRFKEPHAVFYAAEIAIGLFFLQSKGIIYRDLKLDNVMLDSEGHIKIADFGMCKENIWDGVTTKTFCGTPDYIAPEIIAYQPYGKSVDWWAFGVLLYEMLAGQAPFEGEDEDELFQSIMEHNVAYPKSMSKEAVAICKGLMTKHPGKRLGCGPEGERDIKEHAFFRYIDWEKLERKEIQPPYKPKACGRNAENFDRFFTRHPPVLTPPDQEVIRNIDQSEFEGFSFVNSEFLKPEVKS
ASSAY: PKC enzyme assay (BIOTRAK Protein kinase C enzyme assay system, 32P-ATP phosphorylation of peptide […])
Assay type: biochemical
CONDITION DESCRIPTION: Protein Kinase C, Human Recombinant; test substance 1 nM-10 µM; 37°C, 15 minutes; read-out: Inhibition of PKC activity IC50 PKC β II
Where a name gives a salt, the structure may show the parent alone.
Param answer (str): number followed by unit.

For the molecule shown here, O=C1NC(=O)C(c2cn(CCCN3CCN(CCO)CC3)c3ccccc23)=C1Nc1ccccc1 , give the reported IC50. 19 nM

Which IC50 value is on record for CN(C)C[C@@H]1CCc2c(C3=C(Nc4ccccc4)C(=O)NC3=O)c3ccccc3n2C1 ? 6 nM

I would be grateful if you could share the reported IC50 for O=C1NC(=O)C(c2cn(CCCN3CCSCC3)c3ccccc23)=C1Nc1ccccc1 . 17 nM

Look up IC50: N=C(N)SCCCn1cc(C2=C(Nc3ccccc3)C(=O)NC2=O)c2ccccc21 [Example 2-43, hydrobromide] 2 nM

Reported IC50 for O=C1NC(=O)C(c2cn(CCCn3ccnc3)c3ccccc23)=C1Nc1ccccc1 : what is it? 5 nM

For the molecule O=C1NC(=O)C(c2cn(CCCO)c3ccccc23)=C1Nc1ccccc1 , what IC50 is on record? 30 nM

What value of measured IC50 is listed for Cc1c(C2=C(Nc3ccccc3)C(=O)NC2=O)c2ccccc2n1CCCN1CCCCC1 ? 98 nM

Param item = O=C1NC(=O)C(c2cn(CCCn3ccnc3)c3ccccc23)=C1Nc1ccc(Br)cc1 ; retrieve measured IC50. 27 nM

---

SYSTEM TESTED: PKC α (Homo sapiens, UniProt P17252)
Construct: purchased CALBIOCHEM
ASSAY: PKC enzyme assay (BIOTRAK Protein kinase C enzyme assay system, 32P-ATP phosphorylation of peptide […])
Assay type: biochemical
CONDITION DESCRIPTION: Protein Kinase C, Human Recombinant; test substance 1 nM-10 µM; 37°C, 15 minutes; read-out: Inhibition of PKC activity IC50 PKC α
Description: As the reagent for enzyme assay, BIOTRAK Protein kinase C enzyme assay system (hereinafter the system, Amersham), and as the PKC enzyme standard product, Protein Kinase C, Human Recombinant (CALBIOCHEM) were purchased and used in the assay. […] The ratio of the radioactivity of the addition of the test substance to the addition of DMSO was determined, and IC50 was calculated from inhibition at each concentration.
Exercise: for every item that follows, state its recorded IC50.
Provide the reading as a plain figure in µM.

// IC50 lookup, key: O=C1NC(=O)C(c2cn(CCCN3CCCCC3)c3ccccc23)=C1Nc1ccccc1 0.726

Can you look up the measured IC50 of O=C1NC(=O)C(c2c[nH]c3ccccc23)=C1Nc1cccc(Cl)c1 for me? 6.91

Suppose we examine the molecule O=C1NC(=O)C(c2cn(CCn3ccnc3)c3ccccc23)=C1Nc1ccccc1 ; what IC50 value has been reported? 4.43

# lookup: IC50 of CN1CCN(CCCn2cc(C3=C(Nc4ccccc4)C(=O)NC3=O)c3ccccc32)CC1 0.968

---

SYSTEM TESTED: PKC β II (Homo sapiens, UniProt P05771)
Construct: purchased CALBIOCHEM
ASSAY: PKC enzyme assay (BIOTRAK Protein kinase C enzyme assay system, 32P-ATP phosphorylation of peptide […])
Format: biochemical
CONDITION DESCRIPTION: Protein Kinase C, Human Recombinant; test substance 1 nM-10 µM; 37°C, 15 minutes; read-out: Inhibition of PKC activity IC50 PKC β II
pIC50: −log10 of the molar value.
// label = condition met if pIC50 is not less than 7, otherwise condition not met

Has Cc1cccc(NC2=C(c3cn(CCCN(C)C)c4ccccc34)C(=O)NC2=O)c1 [Example 2-11] a recorded pIC50 greater than or equal to 7? condition met

Check the entry O=C1NC(=O)C(c2cn(CCCO)c3ccccc23)=C1Nc1ccc(Cl)c(Cl)c1 [Example 2-6] : does pIC50 equal or exceed 7? condition met

Quick check, pIC50 >= 7? O=C1NC(=O)C(c2cn(CCCn3ccnc3)c3ccccc23)=C1Nc1ccc(Cl)cc1 [Example 2-64] condition met

pIC50 >= 7 for CN(C)CCn1cc(C2=C(Nc3ccccc3)C(=O)NC2=O)c2ccccc21 [Example 2-9] ? condition met

API: above_or_equal(metric=pIC50, cutoff=7) for item O=C1NC(=O)C(c2c[nH]c3ccccc23)=C1Nc1cccc(Cl)c1 [Example 1-6] condition not met

Assess whether reported pIC50 for CCN(CC)CCCn1cc(C2=C(Nc3ccccc3)C(=O)NC2=O)c2ccccc21 [Example 2-13] sits at 7 or higher. condition met

Determine whether this molecule has pIC50 no lower than 7: CC(C)(C)OC(=O)C1CCN(CCCn2cc(C3=C(Nc4ccccc4)C(=O)NC3=O)c3ccccc32)CC1 [Example 2-51] condition met

Decide: is the reported value of pIC50 for O=C1NC(=O)C(c2cn(CC(O)CO)c3ccccc23)=C1Nc1ccccc1 (centres unmarked) [Example 2-44] equal to or greater than 7? condition not met

Textbook exercise: given the entry O=C1NC(=O)C(c2c[nH]c3ccccc23)=C1Nc1ccccc1 [Example 1-2] , state whether its pIC50 is greater than or equal to 7. condition not met

Is the recorded value of pIC50 equal to or greater than 7 for this molecule? O=C1NC(=O)C(c2cn(CCCn3ccnc3)c3ccccc23)=C1Nc1ccc(F)cc1 [Example 2-68] condition met

Has Cc1cncn1CCCn1cc(C2=C(Nc3cccc(Cl)c3)C(=O)NC2=O)c2ccccc21 [Example 2-59] a recorded pIC50 greater than or equal to 7? condition met

Given the entry O=C1NC(=O)C(c2cn(CCCO)c3ccccc23)=C1Nc1cccc(Cl)c1 [Example 2-3] , answer whether its pIC50 meets or surpasses 7. condition met

Reported pIC50 at or above 7? O=C1NC(=O)C(c2cn(CCCn3cncn3)c3ccccc23)=C1Nc1ccccc1 [Example 2-38] condition met

Hi team, for CC(=O)OCCn1cc(C2=C(Nc3ccccc3)C(=O)NC2=O)c2ccccc21 [Example 2-7] , is the recorded pIC50 at or above 7? condition met

---

SYSTEM TESTED: PKC β II (Homo sapiens, UniProt P05771)
Construct: purchased CALBIOCHEM
ASSAY: PKC enzyme assay (BIOTRAK Protein kinase C enzyme assay system, 32P-ATP phosphorylation of peptide […])
Assay type: biochemical
CONDITION DESCRIPTION: IC50 PKC α / IC50 PKC β II
Procedure: The method for determining the PKC inhibitory activity of the compound of the present invention is explained in the following. Inasmuch as PKCβII is present in greater number in intravascular cells than PKCβI, PKCβII was mainly used here to test the enzyme activity. […] The ratio of the radioactivity of the addition of the test substance to the addition of DMSO was determined, and IC50 was calculated from inhibition at each concentration.
Assign TRUE whenever Ratio α/β does not fall below 60; assign FALSE whenever it does.

Test whether the molecule CN1CCC(Cn2cc(C3=C(Nc4ccccc4)C(=O)NC3=O)c3ccccc32)CC1 records Ratio α/β of 60 or higher. FALSE

Dear colleague, could you confirm whether O=C1NC(=O)C(c2c3n(c4ccccc24)C[C@H](CO)C=C3)=C1Nc1ccccc1 has Ratio α/β at or above 60? TRUE

State whether the measured Ratio α/β reaches 60, counting equality as reaching it, for NC(=O)N1CCC(Cn2cc(C3=C(Nc4ccccc4)C(=O)NC3=O)c3ccccc32)CC1 FALSE

Decide: Ratio α/β of Cc1cccc(NC2=C(c3cn(CCCO)c4ccccc34)C(=O)NC2=O)c1 >= 60? TRUE

Could you verify whether the entry CN(C)C[C@@H]1CCc2c(C3=C(Nc4ccccc4)C(=O)NC3=O)c3ccccc3n2C1 shows Ratio α/β of no less than 60? TRUE

Hello, I need to know if CN(C)CCn1cc(C2=C(Nc3ccccc3)C(=O)NC2=O)c2ccccc21 has measured Ratio α/β not below 60. Thanks! TRUE

Form field: Ratio α/β at least 60? Entry: CCN(C)CCCn1c(C)c(C2=C(Nc3ccccc3)C(=O)NC2=O)c2ccccc21 TRUE

Entry O=C1NC(=O)C(c2cn(CCCn3cccn3)c3ccccc23)=C1Nc1ccccc1 : is its Ratio α/β no less than 60? FALSE

---

SYSTEM TESTED: PKC β II (Homo sapiens, UniProt P05771)
Construct: purchased CALBIOCHEM
ASSAY: PKC enzyme assay (BIOTRAK Protein kinase C enzyme assay system, 32P-ATP phosphorylation of peptide […])
Type: biochemical
CONDITION DESCRIPTION: IC50 PKC α / IC50 PKC β II
MEASUREMENT KIND: Ratio α/β
# respond with the number and nothing more

Which Ratio α/β reading was recorded for the compound O=C1NC(=O)C(c2cn(CCCn3ccnc3)c3ccccc23)=C1Nc1ccc(F)cc1 [Example 2-68] ? 53

Which Ratio α/β is reported for this compound? CN(C)C[C@H]1CCc2c(C3=C(Nc4ccccc4)C(=O)NC3=O)c3ccccc3n2C1 [Example 4-55] 63

Find the recorded Ratio α/β belonging to O=C1NC(=O)C(c2cn(CCCN3CCCC3)c3ccccc23)=C1Nc1ccccc1 [Example 2-22] and report it. 37

Name the reported Ratio α/β value associated with the compound O=C1NC(=O)C(c2c3n(c4ccccc24)C[C@@H](CO)C3)=C1Nc1ccc(F)cc1 [Example 4-68] 85

Given the entry O=C1NC(=O)C(c2c3n(c4ccccc24)CC[C@H](CN2CCOCC2)C3)=C1Nc1ccccc1 [Example 4-26] , report its measured Ratio α/β. 85

So what's the measured Ratio α/β for this one? O=C1NC(=O)C(c2c3n(c4ccccc24)CCCC(Cn2ccnc2)C3)=C1Nc1ccccc1 (stereo not shown) [Example 4-38] 244

# query: Ratio α/β of entry O=C1NC(=O)C(c2cn(CCCN3CCSCC3)c3ccccc23)=C1Nc1ccccc1 [Example 2-21] 46

Fill in: Ratio α/β of O=C1NC(=O)C(c2cn(CCCn3cncn3)c3ccccc23)=C1Nc1ccccc1 [Example 2-38] is ___ 25

What value of Ratio α/β has been recorded for this entry: O=C1NC(=O)C(c2cn(CCCCO)c3ccccc23)=C1Nc1ccccc1 [Example 2-5] 61

Name the recorded Ratio α/β for CN(C)CCCn1cc(C2=C(Nc3ccccc3)C(=O)NC2=O)c2ccccc21 [Example 2-8] . 38
